ASSAYED_SYSTEM: L-Selectin (Homo sapiens, UniProt P14151)
Construct: purchased Research and Development Systems 728-LS
Sequence (P14151 39-332 limits assumed): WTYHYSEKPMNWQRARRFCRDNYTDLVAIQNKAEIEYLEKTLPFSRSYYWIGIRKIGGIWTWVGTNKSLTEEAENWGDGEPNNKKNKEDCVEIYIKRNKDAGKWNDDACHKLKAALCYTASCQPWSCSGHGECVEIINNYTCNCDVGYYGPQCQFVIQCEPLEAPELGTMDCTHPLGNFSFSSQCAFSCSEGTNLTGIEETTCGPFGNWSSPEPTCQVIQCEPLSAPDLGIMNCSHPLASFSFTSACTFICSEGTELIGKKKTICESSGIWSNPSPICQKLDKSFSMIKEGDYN
ASSAY_INFO: ELISA: inhibition of L-selectin/IgG binding to immobilized heparin (Heparin-BSA)
TEST_SETTINGS: L-Selectin binding to heparin; 50 μM
Listed compounds paired with reported inhibition at 50 µM
The reply should be a number in %, with the unit left off.

chemical_smiles=CN1CCc2c(sc(NC(=O)c3ccc(S(=O)(=O)N4CCCCC4)cc3)c2-c2nc3ccccc3s2)C1 readout_name="inhibition at 50 µM" unit_abbrev=% value_measured=26
chemical_smiles=CCCN(CCC)S(=O)(=O)c1ccc(C(=O)Nc2sc3c(c2-c2nc4ccccc4s2)CCN(CC)C3)cc1 readout_name="inhibition at 50 µM" unit_abbrev=% value_measured=25
chemical_smiles=CCCCN(C)S(=O)(=O)c1ccc(C(=O)Nc2sc3c(c2C(=O)OCC)CCN(C(C)C)C3)cc1 readout_name="inhibition at 50 µM" unit_abbrev=% value_measured=40

Next compound, inhibition at 50 µM to be filled in.
Lookup: Reported inhibition at 50 µM for L-Selectin (Homo sapiens, UniProt P14151), given `CCCCN(CC)S(=O)(=O)c1ccc(C(=O)Nc2sc3c(c2C(N)=O)CCN(C(C)C)C3)cc1` ?
Found: 55
